test: In vitro DMPK: rat hepatic intrinsic clearance; assay type: in vitro ADME; conditions: hepatocytes
readout_label: hepatocyte CLint (µL/min/1e6 cells)
Answer format: numeric, µL/min/1e6 cells implied, no suffix.

hepatocyte CLint reading for COC(=O)Nc1nc2cc(C(=O)c3ccc(F)cc3)ccc2[nH]1 : 39

====

test: In vitro DMPK: plasma protein binding; type: in vitro ADME
readout_label: fraction unbound
Please state the value as a number alone, without comment.

fraction unbound reading for COC(=O)Nc1nc2cc(C(=O)c3ccc(F)cc3)ccc2[nH]1 [flubendazole] : 0.094

====

test: In vitro DMPK: human microsomal intrinsic clearance; type: in vitro ADME; conditions: human microsomes
readout_label: microsomal CLint (µL/min/mg)
Answer format: numeric, µL/min/mg implied, no suffix.

microsomal CLint reading for COC(=O)Nc1nc2cc(C(=O)c3ccc(F)cc3)ccc2[nH]1 : 44

====

experiment: In vitro DMPK: logD7.4; assay type: physicochemical; details: pH 7.4; commercially available powder
readout_label: logD
Please state the value as a number alone, without comment.

logD reading for COC(=O)Nc1nc2cc(C(=O)c3ccc(F)cc3)ccc2[nH]1 [flubendazole] : 2.9

====

experiment: In vitro DMPK: aqueous solubility; assay type: physicochemical
readout_label: solubility (µM)
Answer format: numeric, µM implied, no suffix.

solubility reading for COC(=O)Nc1nc2cc(C(=O)c3ccc(F)cc3)ccc2[nH]1 : 0.8
